# Test system: Antibody-1B
# ASSAY OVERVIEW: Competitive ELISA for pyrrolidinophenones, Antibody-1B with Tracer-1 (Example 10)
# Assay type: binding, sheep
# TEST CONDITIONS: relative to α-PVP = 100; Antibody-1B coated at 2.5 μg/ml, Tracer-1 at 1/128k; Table 2

MOLECULE: CC(C(=O)c1ccccc1)N1CCCC1 (centres unmarked)
RELATION SIGN: <
% Cross-Reactivity / %: 3.150
--
MOLECULE: CCCC(C(=O)c1ccc(C)cc1)N1CCCC1 (centres unmarked)
RELATION SIGN: =
% Cross-Reactivity / %: 187.500
--
MOLECULE: CCCC(C(=O)c1ccc2ccccc2c1)N1CCCC1 (centres unmarked)
RELATION SIGN: =
% Cross-Reactivity / %: 142.534
--
MOLECULE: CCCC(C(=O)c1ccccc1)N1CCCC1 (centres unmarked)
RELATION SIGN: =
% Cross-Reactivity / %: 100
--
MOLECULE: CCCC(C(=O)c1ccc2c(c1)OCO2)N1CCCC1 (centres unmarked)
RELATION SIGN: =
% Cross-Reactivity / %: 178.977
--
MOLECULE: Cc1ccc(C(=O)C(C)N2CCCC2)cc1 (racemic)
RELATION SIGN: <
% Cross-Reactivity / %: 3.150
--
MOLECULE: CCCC(C(=O)c1ccc(OC)cc1)N1CCCC1 (centres unmarked)
RELATION SIGN: =
% Cross-Reactivity / %: 135.193
--
MOLECULE: CCC(C(=O)c1ccc2c(c1)OCO2)N1CCCC1 (centres unmarked)
RELATION SIGN: =
% Cross-Reactivity / %: 20.561
